- Test system: K9TCC-PU
- Assay Text: Binding affinity by PLZ4-biotin / avidin-HRP on fixed K9TCC-PU cells
- Set-up: species or system canine
- Assay Conditions: restated in b239 without cell line, read-out: Kd50
Positions of bridges follow the written chain, without caps; N, C: chain ends. Non-standard residues stand in square brackets, D forms with d. No end group written: not given here.
Outcome Measure: Kd (µM)
# number only, unit µM dropped from output

Task: Notebook: pull reported Kd for K9TCC-PU, entry cQDGRMGFc ([dC]QDGRMGF[dC]; disulfide 1-9 (inferred)) [PLZ4, bladder cancer-specific ligand peptide]
Result: 21.3
